Biological target: human recombinant STK3 (MST2) (Homo sapiens, UniProt Q13188)
Sequence (Q13188 1-491 limits assumed): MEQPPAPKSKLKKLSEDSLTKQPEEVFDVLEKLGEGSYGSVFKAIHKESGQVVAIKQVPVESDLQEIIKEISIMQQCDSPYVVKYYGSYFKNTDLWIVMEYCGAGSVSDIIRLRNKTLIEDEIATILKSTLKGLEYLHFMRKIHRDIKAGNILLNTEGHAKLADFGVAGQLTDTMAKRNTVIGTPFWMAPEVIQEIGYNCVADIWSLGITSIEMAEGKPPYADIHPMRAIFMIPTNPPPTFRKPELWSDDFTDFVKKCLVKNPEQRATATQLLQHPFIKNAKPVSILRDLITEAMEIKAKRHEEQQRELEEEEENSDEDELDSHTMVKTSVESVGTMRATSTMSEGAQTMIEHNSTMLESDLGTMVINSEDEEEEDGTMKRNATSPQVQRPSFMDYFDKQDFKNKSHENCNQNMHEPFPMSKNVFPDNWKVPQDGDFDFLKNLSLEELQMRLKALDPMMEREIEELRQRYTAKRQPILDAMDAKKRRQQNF
Conditions: inhibitor
attributeMeasured: STK3 % activity remaining (1µM) (%)
Record the value in %, omitting the unit from your answer.

## Task STK3 % activity remaining (1µM) lookup needed for `O=C(c1c[nH]c2ncc(C3CC3)nc12)N1CCOCC1` , thanks.
## Result 138

## Task Give its STK3 % activity remaining (1µM) value. Item: `CS(=O)(=O)N1CCN(C(=O)c2c[nH]c3ncc(C4CC4)nc23)CC1`
## Result 82

## Task Look up STK3 % activity remaining (1µM): `COCCCNC(=O)c1c[nH]c2ncc(C3CC3)nc12`
## Result 44

## Task Quick one: STK3 % activity remaining (1µM) of `CNS(=O)(=O)CCNC(=O)c1c[nH]c2ncc(C3CC3)nc12` ?
## Result 89

## Task Tell me the measured STK3 % activity remaining (1µM) of `C[C@H](NC(=O)c1c[nH]c2ncc(C3CC3)nc12)C(C)(C)O` , please.
## Result 15

###

Would you mind telling me the reported MST4 % activity remaining (1µM) of each entry?
biological target: human recombinant STK26 (aka MST4) (Homo sapiens, UniProt Q9P289); conditions: inhibitor
Sequence (Q9P289 2-416): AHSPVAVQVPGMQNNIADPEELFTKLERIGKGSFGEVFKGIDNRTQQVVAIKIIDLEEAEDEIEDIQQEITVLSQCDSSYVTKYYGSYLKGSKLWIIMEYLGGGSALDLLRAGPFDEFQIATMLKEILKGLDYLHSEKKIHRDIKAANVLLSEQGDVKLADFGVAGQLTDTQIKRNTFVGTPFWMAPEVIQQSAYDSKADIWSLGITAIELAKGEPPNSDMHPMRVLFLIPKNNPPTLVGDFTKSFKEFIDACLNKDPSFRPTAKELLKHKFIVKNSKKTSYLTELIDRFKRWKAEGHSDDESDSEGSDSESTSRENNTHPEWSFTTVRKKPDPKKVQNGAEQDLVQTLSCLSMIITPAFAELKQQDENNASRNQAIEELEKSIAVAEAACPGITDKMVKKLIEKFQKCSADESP
Provide a numeric answer, followed by its unit.

## Task Report MST4 % activity remaining (1µM) for `COCCCNC(=O)c1c[nH]c2ncc(C3CC3)nc12` please.
## Result 74%

## Task Value lookup for MST4 % activity remaining (1µM); key = `O=C(c1c[nH]c2ncc(C3CC3)nc12)N1CCOCC1`
## Result 82%

## Task May I ask what MST4 % activity remaining (1µM) has been recorded for `C[C@H](NC(=O)c1c[nH]c2ncc(-c3ccccc3)nc12)C(C)(C)O` ?
## Result 51%

## Task Given the entry `C[C@H](NC(=O)c1c[nH]c2ncc(-c3ccccc3)nc12)C(C)(C)C` , report its measured MST4 % activity remaining (1µM).
## Result 27%

## Task What value of measured MST4 % activity remaining (1µM) is listed for `CS(=O)(=O)N1CCN(C(=O)c2c[nH]c3ncc(C4CC4)nc23)CC1` ?
## Result 106%

###

Target: NanoLuc-STK3 (STK3-NanoBRET) (Homo sapiens)
Sequence (Q13188 1-491): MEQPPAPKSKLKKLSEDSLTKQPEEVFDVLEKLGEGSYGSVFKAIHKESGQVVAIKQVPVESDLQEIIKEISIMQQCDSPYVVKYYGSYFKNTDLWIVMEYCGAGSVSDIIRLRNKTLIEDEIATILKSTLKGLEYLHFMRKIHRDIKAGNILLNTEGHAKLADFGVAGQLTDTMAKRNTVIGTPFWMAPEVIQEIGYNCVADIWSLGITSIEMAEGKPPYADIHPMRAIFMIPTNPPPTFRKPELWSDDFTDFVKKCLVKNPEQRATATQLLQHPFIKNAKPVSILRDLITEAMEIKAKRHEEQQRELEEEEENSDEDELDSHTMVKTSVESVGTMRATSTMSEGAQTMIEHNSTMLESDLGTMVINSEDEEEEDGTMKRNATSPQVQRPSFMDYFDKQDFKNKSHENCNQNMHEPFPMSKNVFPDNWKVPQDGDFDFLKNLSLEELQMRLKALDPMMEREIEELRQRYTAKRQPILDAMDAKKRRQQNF
Assay: NanoBRET tracer displacement in live cells
Type: cell-based
attributeMeasured: pIC50
pIC50 field: float, defined as -log10 of concentration (mol/L).

## Task I'd like to know its pIC50. The compound in question is `C[C@H](NC(=O)c1c[nH]c2ncc(-c3ccccc3)nc12)C(C)(C)C`
## Result 5.70

## Task Would you mind telling me what pIC50 value was observed for `C[C@H](NC(=O)c1c[nH]c2ncc(-c3ccccc3)nc12)C(C)(C)O` ?
## Result 5.68

## Task Please give the measured pIC50 for this compound: `CN(C)c1ncnc2[nH]cc(-c3cccc(C#N)c3)c12`
## Result 5.37

## Task Param item = `C[C@H](NC(=O)c1c[nH]c2ncc(C3CC3)nc12)C(C)(C)O` ; retrieve measured pIC50.
## Result 5.04

###

molecular target: human recombinant STK26 (aka MST4) (Homo sapiens, UniProt Q9P289); settings: inhibitor
I'd be grateful if you could share measured MST4 % activity remaining (1µM) for these entries.
Give the value, in units of %, as a plain number.

## Task What value of measured MST4 % activity remaining (1µM) is listed for `CN1C(=O)c2sccc2N(C)c2nc(Nc3ccc(S(N)(=O)=O)cc3)ncc21` ?
## Result 40

## Task Item under review: `CNS(=O)(=O)CCNC(=O)c1c[nH]c2ncc(C3CC3)nc12` . Reported MST4 % activity remaining (1µM)?
## Result 71

## Task I would be grateful if you could share the reported MST4 % activity remaining (1µM) for `COc1cccc([C@H](C)NC(=O)c2c[nH]c3ncc(-c4ccccc4)nc23)c1` .
## Result 74

## Task // returns reported MST4 % activity remaining (1µM) for input `C[C@H](NC(=O)c1c[nH]c2ncc(C3CC3)nc12)C(C)(C)O`
## Result 54

###

biological target: human recombinant STK4 (Homo sapiens); settings: inhibitor
Sequence (Q13043 whole entry): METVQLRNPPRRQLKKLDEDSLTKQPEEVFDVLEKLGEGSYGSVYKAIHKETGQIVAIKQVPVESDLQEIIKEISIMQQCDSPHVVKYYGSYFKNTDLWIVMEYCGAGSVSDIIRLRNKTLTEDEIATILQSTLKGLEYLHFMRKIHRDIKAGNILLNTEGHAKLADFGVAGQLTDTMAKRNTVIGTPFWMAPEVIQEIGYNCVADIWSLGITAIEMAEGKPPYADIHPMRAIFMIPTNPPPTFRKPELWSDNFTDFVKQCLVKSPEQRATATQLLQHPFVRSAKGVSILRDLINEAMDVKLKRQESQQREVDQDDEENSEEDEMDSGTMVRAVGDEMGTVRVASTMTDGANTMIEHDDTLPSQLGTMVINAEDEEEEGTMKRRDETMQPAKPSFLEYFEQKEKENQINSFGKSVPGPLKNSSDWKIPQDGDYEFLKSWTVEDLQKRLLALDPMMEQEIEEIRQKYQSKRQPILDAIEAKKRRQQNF
attributeMeasured: STK4 % activity remaining (1µM) (%)
Report as a plain number; the unit % is understood.

## Task Suppose we examine the compound `O=C(c1c[nH]c2ncc(C3CC3)nc12)N1CCOCC1` ; what STK4 % activity remaining (1µM) value has been reported?
## Result 84

## Task // query STK4 % activity remaining (1µM) value for entry `COCCCNC(=O)c1c[nH]c2ncc(C3CC3)nc12`
## Result 26

## Task Returns the measured STK4 % activity remaining (1µM) for the input compound. Input: `CN1C(=O)c2sccc2N(C)c2nc(Nc3ccc(S(N)(=O)=O)cc3)ncc21`
## Result 14

## Task Which STK4 % activity remaining (1µM) is listed for `CNS(=O)(=O)CCNC(=O)c1c[nH]c2ncc(C3CC3)nc12` ?
## Result 36

## Task Query: STK4 % activity remaining (1µM); subject: `C[C@H](NC(=O)c1c[nH]c2ncc(-c3ccccc3)nc12)C(C)(C)O`
## Result 4

## Task Returns the measured STK4 % activity remaining (1µM) for the input compound. Input: `C[C@H](NC(=O)c1c[nH]c2ncc(-c3ccccc3)nc12)C(C)(C)C`
## Result 2

## Task # query: STK4 % activity remaining (1µM) of entry `COc1cccc([C@H](C)NC(=O)c2c[nH]c3ncc(-c4ccccc4)nc23)c1`
## Result 39

## Task Could you tell me which STK4 % activity remaining (1µM) is on file for `CS(=O)(=O)N1CCN(C(=O)c2c[nH]c3ncc(C4CC4)nc23)CC1` ?
## Result 98

## Task Which STK4 % activity remaining (1µM) value belongs to `C[C@H](NC(=O)c1c[nH]c2ncc(C3CC3)nc12)C(C)(C)O` ?
## Result 7

###

Consider the following compounds; for each one, report its IC50.
Target: human recombinant STK3 (MST2) (Homo sapiens)
Sequence (Q13188 1-491 limits assumed): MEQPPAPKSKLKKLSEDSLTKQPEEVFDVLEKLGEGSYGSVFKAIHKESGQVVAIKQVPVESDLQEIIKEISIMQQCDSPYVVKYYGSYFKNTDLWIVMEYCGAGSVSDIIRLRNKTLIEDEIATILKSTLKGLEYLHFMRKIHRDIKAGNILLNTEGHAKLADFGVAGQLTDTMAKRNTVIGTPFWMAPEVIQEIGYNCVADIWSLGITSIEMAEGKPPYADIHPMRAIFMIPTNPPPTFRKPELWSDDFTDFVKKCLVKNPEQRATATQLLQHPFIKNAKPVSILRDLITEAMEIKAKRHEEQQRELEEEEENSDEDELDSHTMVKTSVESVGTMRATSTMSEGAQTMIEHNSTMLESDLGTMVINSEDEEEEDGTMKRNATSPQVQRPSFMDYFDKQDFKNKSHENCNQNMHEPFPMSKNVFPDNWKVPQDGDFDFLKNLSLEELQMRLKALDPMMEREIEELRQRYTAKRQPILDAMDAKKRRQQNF
Assay: radiometric kinase assay
Format: biochemical
Dear colleague, please return just the value in nM, with no unit written.

## Task Please give the measured IC50 for this compound: C[C@H](NC(=O)c1c[nH]c2ncc(-c3ccccc3)nc12)C(C)(C)O [A4, UNC-BE4-36-1]
## Result 124

## Task Quick one: IC50 for CN(C)c1ncnc2[nH]cc(-c3cccc(C#N)c3)c12 [B1, UNC-SOB-5-16] ?
## Result 113

## Task Dear colleague, I am looking for the recorded IC50 of the following compound: C[C@H](NC(=O)c1c[nH]c2ncc(-c3ccccc3)nc12)C(C)(C)C [A3, UNC-BE4-035]
## Result 7

## Task Fill in: IC50 of C[C@H](NC(=O)c1c[nH]c2ncc(C3CC3)nc12)C(C)(C)O [A2, UNC-BE4-018] is ___
## Result 195
